Reference source for all entries: ChEMBL document CHEMBL3390846

Target: Human immunodeficiency virus type 1 reverse transcriptase (Human immunodeficiency virus 1, UniProt Q72547, K103N)
Test: Inhibition of polymerase activity of NNRTI-resistant HIV-1 LAI reverse transcriptase K103N mutant
measurement kind: IC50

smiles string | measurement kind | reported
Cc1[nH]c(=O)c(Cl)c(Oc2cc(Cl)cc(C#N)c2)c1CCCc1ccncc1 | IC50 | 2 nM
Cc1[nH]c(=O)c(Br)c(Oc2cc(Cl)cc(C#N)c2)c1Cc1ccccc1 | IC50 | 7 nM
N#Cc1cc(Cl)cc(Oc2c(F)c(CCc3cccc(Cl)c3)[nH]c(=O)c2Br)c1 | IC50 | 8 nM
N#Cc1cc(Cl)cc(Oc2c(COCc3ccncc3)c[nH]c(=O)c2Br)c1 | IC50 | 13 nM
N#Cc1cc(Cl)cc(Oc2cc(CCc3nc4ccccc4o3)[nH]c(=O)c2Cl)c1 | IC50 | 16 nM
N#Cc1cc(Cl)cc(Oc2c(CCOc3cccnc3)c[nH]c(=O)c2Br)c1 | IC50 | 16 nM
N#Cc1cc(Cl)cc(Oc2c(F)c(CCc3ccncc3)[nH]c(=O)c2Br)c1 | IC50 | 1 nM
N#Cc1cc(Cl)cc(Oc2cc(CCc3cccnc3)[nH]c(=O)c2Cl)c1 | IC50 | 16 nM
N#Cc1cc(Cl)cc(Oc2c(Cc3ccccc3)c[nH]c(=O)c2Br)c1 | IC50 | 71 nM
N#Cc1cc(Cl)cc(Oc2cc(CCc3ccncc3)[nH]c(=O)c2Cl)c1 | IC50 | 14 nM
Cc1[nH]c(=O)c(Cl)c(Oc2cc(Cl)cc(C#N)c2)c1CCOc1ccccc1 | IC50 | 5 nM
N#Cc1cc(Cl)cc(Oc2c(CCOc3ccncc3)c[nH]c(=O)c2Br)c1 | IC50 | 14 nM
N#Cc1cc(Cl)cc(Oc2cc(CCc3ccccn3)[nH]c(=O)c2Cl)c1 | IC50 | 78 nM
N#Cc1cc(Cl)cc(Oc2cc(CCc3cccc(Cl)c3)[nH]c(=O)c2Cl)c1 | IC50 | 6 nM
